Format: in vivo, human
runConditions: male, human, plasma, oral, Cmax, geometric mean, Day 12, midazolam 7.5 mg with amenamevir 400 mg (last of 10 daily doses), n = 18
measuredParameter: Cmax (µg/mL)
Use µg/mL as the unit, but write only the number.

Item `Cc1ncc2n1-c1ccc(Cl)cc1C(c1ccccc1F)=NC2` has what recorded Cmax?
0.0234

====

Assay type: in vivo, human
runConditions: male, human, plasma, oral, AUC0–∞, LS mean, Day 12, midazolam 7.5 mg with amenamevir 400 mg (last of 10 daily doses), n = 18
measuredParameter: AUC(0-inf) (ng·h/mL)
Use ng·h/mL as the unit, but write only the number.

Item Cc1ncc2n1-c1ccc(Cl)cc1C(c1ccccc1F)=NC2 [midazolam] has what recorded AUC(0-inf)?
58
